Biological target: Estrogen receptor (Rattus norvegicus) (UniProt P06211+Q62986)
Settings: at 1 mg/kg
Description: Anti-estrogen effects in rat (uterine weight) following 1 mg/kg s.c.
property-measured: Antagonism (%)

# annotated cases, reported Antagonism shown
molecule | unit-label | result
Oc1ccc([C@@H]2Sc3cc(O)c(Cl)cc3O[C@@H]2c2ccc(OCCN3CCCCC3)cc2)cc1 | % | 36
Oc1ccc([C@@H]2Sc3cc(O)c(F)cc3O[C@@H]2c2ccc(OCCN3CCCCC3)cc2)cc1 | % | 53
Oc1cccc([C@H]2Sc3cc(O)ccc3O[C@H]2c2ccc(OCCNC3CCCCCC3)cc2)c1 | % | 57
CC1CCN(CCOc2ccc([C@@H]3Oc4ccc(O)cc4S[C@@H]3c3cccc(O)c3)cc2)CC1 | % | 59
Oc1ccc([C@@H]2Sc3c(O)cc(O)cc3O[C@@H]2c2ccc(OCCN3CCCCC3)cc2)cc1 | % | 64

P = Oc1ccc([C@@H]2Sc3ccc(O)cc3O[C@@H]2c2ccc(OCCN3CCCCC3)cc2)cc1
Q = Cc1cc(O)cc2c1O[C@H](c1ccc(OCCN3CCCCC3)cc1)[C@H](c1ccc(O)cc1)S2
R = CC1CCCC(C)N1CCOc1ccc([C@@H]2Oc3ccc(O)cc3S[C@@H]2c2cccc(O)c2)cc1 (stereo not given in full)
S = Cc1c(O)ccc2c1O[C@H](c1ccc(OCCN3CCCCC3)cc1)[C@H](c1ccc(O)cc1)S2
T = Oc1ccc2c(c1)SC(c1ccc(F)cc1)C(c1ccc(OCCN3CCCCC3)cc1)O2 (stereo not given)
## Input Ordering: ascending Antagonism. Please list the labels in the order you were asked to rank them.
## Output Q, T, S, R, P

###

Protein target, amino acids: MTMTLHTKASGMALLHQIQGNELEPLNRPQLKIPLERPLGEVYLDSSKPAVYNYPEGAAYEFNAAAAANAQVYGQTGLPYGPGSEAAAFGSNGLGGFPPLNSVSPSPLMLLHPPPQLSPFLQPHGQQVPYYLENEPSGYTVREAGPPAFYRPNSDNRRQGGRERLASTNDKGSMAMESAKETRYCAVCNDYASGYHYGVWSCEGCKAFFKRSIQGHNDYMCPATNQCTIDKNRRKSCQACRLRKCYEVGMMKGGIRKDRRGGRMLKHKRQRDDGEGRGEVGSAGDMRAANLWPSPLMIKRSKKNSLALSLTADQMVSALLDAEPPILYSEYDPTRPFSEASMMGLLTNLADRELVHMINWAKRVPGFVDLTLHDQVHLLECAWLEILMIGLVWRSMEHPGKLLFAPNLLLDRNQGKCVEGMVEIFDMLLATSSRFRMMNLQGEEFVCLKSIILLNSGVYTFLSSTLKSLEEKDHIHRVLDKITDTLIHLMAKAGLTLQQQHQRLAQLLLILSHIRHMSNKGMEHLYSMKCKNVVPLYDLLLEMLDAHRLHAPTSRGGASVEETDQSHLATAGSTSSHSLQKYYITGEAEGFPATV
pIC50: −log10 of the molar value.
property-measured: pIC50

compound | result
Oc1ccc([C@@H]2Sc3c(O)cc(O)cc3O[C@@H]2c2ccc(OCCN3CCCCC3)cc2)cc1 | 7.60
CCc1c(O)ccc2c1O[C@H](c1ccc(OCCN3CCCCC3)cc1)[C@H](c1ccc(O)cc1)S2 | 8.33

A = Cc1cc(O)cc2c1O[C@H](c1ccc(OCCN3CCCCC3)cc1)[C@H](c1ccc(O)cc1)S2
B = Oc1ccc([C@H]2Sc3c(ccc(O)c3F)O[C@H]2c2ccc(OCCN3CCCCC3)cc2)cc1
## Input Lab note: check whether A or B has the lower measured pIC50. Write down the label attached to your selection.
## Output A
(A: 8.28, B: 9.00)

1 = Oc1ccc2c(c1)SC(c1ccc(F)cc1)C(c1ccc(OCCN3CCCCC3)cc1)O2 (stereo unspecified)
2 = Oc1ccc2c(c1)S[C@@H](c1ccccc1O)[C@@H](c1ccc(OCCN3CCCCC3)cc1)O2
## Input Which value of pIC50 is numerically greater: that of 1 or that of 2 ? The response must carry the label of the picked entry.
## Output 2
(2: 8.89, 1: 8.42)

###

Test: Plasma clearance of the compound in female Sprague-Dawley rats
Type: ADME, organism-based
Details: female, Sprague-Dawley, rat, plasma
property-measured: clearance (mL/min/kg)

For orientation, consider the following solved cases.
smiles-data | unit-label | clearance
Oc1ccc([C@H]2Sc3cc(O)ccc3O[C@H]2c2ccc(OCCN3CCCCC3)cc2)cc1 | mL/min/kg | 10
Oc1ccc([C@@H]2Sc3c(F)cc(O)cc3O[C@@H]2c2ccc(OCCN3CCCCC3)cc2)cc1 | mL/min/kg | 41
Oc1ccc([C@@H]2Sc3c(ccc(O)c3F)O[C@@H]2c2ccc(OCCN3CCCCC3)cc2)cc1 | mL/min/kg | 16

A = Oc1ccc([C@H]2Sc3c(ccc(O)c3F)O[C@H]2c2ccc(OCCN3CCCCC3)cc2)cc1
B = Oc1ccc([C@@H]2Sc3ccc(O)cc3O[C@@H]2c2ccc(OCCN3CCCCC3)cc2)cc1
C = Cc1cc(O)cc2c1S[C@@H](c1ccc(O)cc1)[C@@H](c1ccc(OCCN3CCCCC3)cc1)O2
## Input Arrange the 3 compounds from largest to smallest clearance. # answer = labels listed in requested order
## Output B, C, A
(B: 154 mL/min/kg, C: 51 mL/min/kg, A: 18 mL/min/kg)

###

Target: Estrogen receptor (Homo sapiens)
Assay: Potency in cellular transactivation assay utilizing HEK293 cells stably co-transfected with human estrogen receptor alpha and the alkaline phosphatase reporter gene.
Assay type: functional, cell-based
property-measured: IC50 (nM)

I = Cc1cc(O)cc2c1S[C@@H](c1ccc(O)cc1)[C@@H](c1ccc(OCCN3CCCCC3)cc1)O2
II = Oc1cccc([C@H]2Sc3cc(O)ccc3O[C@H]2c2ccc(OCCN3CCCC3)cc2)c1
III = Oc1ccc([C@@H]2Sc3c(ccc(O)c3Cl)O[C@@H]2c2ccc(OCCN3CCCCC3)cc2)cc1
IV = Cc1cc(O)cc2c1O[C@H](c1ccc(OCCN3CCCCC3)cc1)[C@H](c1ccc(O)cc1)S2
## Input Highest IC50 first, then in falling order down to the smallest. I'd appreciate it if you listed the labels in the requested order.
## Output IV, I, II, III
(IV: 22.6 nM, I: 5.5 nM, II: 1.7 nM, III: 1 nM)

A = Oc1ccc([C@@H]2Sc3c(Cl)cc(O)cc3O[C@@H]2c2ccc(OCCN3CCCCC3)cc2)cc1
B = Oc1ccc2c(c1)SC(c1ccc(F)cc1)C(c1ccc(OCCN3CCCCC3)cc1)O2 (centres undefined)
## Input I would appreciate it if you could say which entry, A or B , has the lower IC50 value. Answer format: the label of the selected item.
## Output A

###

pIC50: −log10 of the molar value.
What follows is a record of pIC50 for Estrogen receptor beta (Homo sapiens).
property-measured: pIC50

Check out these entries, answers already filled in.
smiles-data | result
Oc1ccc([C@@H]2Sc3cc(O)cc(Cl)c3O[C@@H]2c2ccc(OCCN3CCCCC3)cc2)cc1 | 6.98
Oc1ccc([C@@H]2Sc3cc(Cl)c(O)cc3O[C@@H]2c2ccc(OCCN3CCCCC3)cc2)cc1 | 6.28

P = Cc1cc(O)cc2c1O[C@H](c1ccc(OCCN3CCCCC3)cc1)[C@H](c1ccc(O)cc1)S2
Q = Cc1c(O)ccc2c1O[C@H](c1ccc(OCCN3CCCCC3)cc1)[C@H](c1ccc(O)cc1)S2
## Input Of the two listed items, which has the higher pIC50? First: P Second: Q Returns: label corresponding to the selected item.
## Output Q
(Q: 7.27, P: 6.46)

###

Biological target: Estrogen receptor (Rattus norvegicus) (UniProt P06211+Q62986)
Details: at 1 mg/kg
Description: Intrinsic estrogenic activity in rat (uterine weight) following 1 mg/kg s.c.
property-measured: Estrogenic effect (%)

compound | unit-label | result
Oc1ccc([C@@H]2Sc3c(ccc(O)c3F)O[C@@H]2c2ccc(OCCN3CCCCC3)cc2)cc1 | % | 7
Oc1ccc([C@@H]2Sc3cc(O)c(F)cc3O[C@@H]2c2ccc(OCCN3CCCCC3)cc2)cc1 | % | 13
Oc1ccc([C@@H]2Sc3ccc(O)cc3O[C@@H]2c2ccc(OCCN3CCCCC3)cc2)cc1 | % | 1
CC1CCN(CCOc2ccc([C@@H]3Oc4ccc(O)cc4S[C@@H]3c3cccc(O)c3)cc2)CC1 | % | 29
CC1CCCC(C)N1CCOc1ccc([C@@H]2Oc3ccc(O)cc3S[C@@H]2c2cccc(O)c2)cc1 (stereo partly specified) | % | 30

1 = Oc1ccc2c(c1)SC(c1ccc(F)cc1)C(c1ccc(OCCN3CCCCC3)cc1)O2 (stereo unspecified)
2 = Oc1cccc(C2Sc3cc(O)ccc3OC2c2ccc(OCCN3CCCCC3)cc2)c1 (stereo unspecified)
## Input Exercise: compare 1 and 2 ; which one has the greater Estrogenic effect? // caller expects the label of the chosen entry
## Output 2
(2: 16%, 1: 5%)

I = Oc1cccc([C@H]2Sc3cc(O)ccc3O[C@H]2c2ccc(OCCN3CCCCC3)cc2)c1
II = Oc1ccc([C@@H]2Sc3c(O)cc(O)cc3O[C@@H]2c2ccc(OCCN3CCCCC3)cc2)cc1
## Input Lab note: check whether I or II has the lower measured Estrogenic effect. State your choice using its label.
## Output II

A = Oc1ccc([C@@H]2Sc3c(Cl)cc(O)cc3O[C@@H]2c2ccc(OCCN3CCCCC3)cc2)cc1
B = Oc1cccc([C@H]2Sc3cc(O)ccc3O[C@H]2c2ccc(OCCN3CCCC3)cc2)c1
## Input Thinking about recorded Estrogenic effect values, which is higher, A or B ? Pick one; state its label.
## Output B
(B: 22%, A: 12%)
